Data credit: patent US10669272B2

# subject-of-test: human DGKζ (Homo sapiens)
# Construct: TVMV protease cleavage site (C); Hexa-His (C); made in house; host or cells: Sf9 insect cells (baculovirus, Bac-to-Bac)
# Sequence (Q13574 with tags, fused parts or gaps isoform Q13574-4): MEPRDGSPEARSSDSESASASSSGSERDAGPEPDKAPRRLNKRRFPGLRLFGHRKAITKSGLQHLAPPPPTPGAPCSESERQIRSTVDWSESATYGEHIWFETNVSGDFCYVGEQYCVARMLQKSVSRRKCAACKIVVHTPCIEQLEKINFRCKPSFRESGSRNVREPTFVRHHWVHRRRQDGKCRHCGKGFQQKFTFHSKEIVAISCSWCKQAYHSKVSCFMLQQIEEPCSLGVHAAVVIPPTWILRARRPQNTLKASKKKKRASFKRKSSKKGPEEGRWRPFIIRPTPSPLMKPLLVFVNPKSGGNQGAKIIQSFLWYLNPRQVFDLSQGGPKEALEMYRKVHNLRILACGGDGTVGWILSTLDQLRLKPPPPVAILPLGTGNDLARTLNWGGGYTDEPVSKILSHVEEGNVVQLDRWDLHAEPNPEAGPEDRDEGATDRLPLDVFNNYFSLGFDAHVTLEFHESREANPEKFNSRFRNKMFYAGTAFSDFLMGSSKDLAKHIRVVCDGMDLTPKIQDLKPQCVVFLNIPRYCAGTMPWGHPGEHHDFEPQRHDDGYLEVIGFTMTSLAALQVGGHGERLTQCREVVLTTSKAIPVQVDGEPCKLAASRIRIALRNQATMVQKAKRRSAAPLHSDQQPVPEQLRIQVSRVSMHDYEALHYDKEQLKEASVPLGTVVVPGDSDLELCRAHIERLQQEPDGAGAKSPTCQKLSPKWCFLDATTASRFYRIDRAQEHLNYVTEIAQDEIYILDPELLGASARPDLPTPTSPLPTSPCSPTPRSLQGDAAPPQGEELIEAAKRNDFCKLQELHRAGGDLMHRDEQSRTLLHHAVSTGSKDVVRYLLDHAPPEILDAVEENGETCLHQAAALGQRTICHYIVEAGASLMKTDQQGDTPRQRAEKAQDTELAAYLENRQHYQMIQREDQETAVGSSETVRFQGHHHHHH
# test-protocol: DGKζ LIPGLO assay (extruded liposome substrate), in vitro DGK inhibition
# Format: biochemical
# measurement-parameters: liposome (LIPGLO) assay; read-out: DGKz LIPGLO IC50
Here the recorded pIC50 is given for each entry.
Would you please state pIC50, meaning minus log10 of the concentration in mol/L, as a bare number?

Record lookup: for human DGKζ (Homo sapiens), what pIC50 belongs to COC[C@@H]1CN(c2cc(=O)n(C)c3ccc(C#N)nc23)[C@@H](C)CN1C(c1ccc(F)cc1)c1ccon1 (single isomer, unassigned) [Example 1399] ?
6.35

// query: CC[C@H]1CN(C(c2ccc(F)cc2)c2ccc(C#N)cc2)[C@H](CC)CN1c1cc(=O)n(C)c2ccc(C#N)nc12 (stereo partly drawn) [Example 1035]
5.96

* * *

# subject-of-test: human DGKζ (Homo sapiens)
# Construct: TVMV protease cleavage site (C); Hexa-His (C); made in house; host or cells: Sf9 insect cells (baculovirus, Bac-to-Bac)
# test-protocol: DGKζ LIPGLO assay (extruded liposome substrate), in vitro DGK inhibition
# Format: biochemical
# measurement-parameters: liposome (LIPGLO) assay; read-out: DGKz LIPGLO IC50
Counter-ions that a name gives are not always drawn.
Collected IC50 values appear next to each entry.

Reference set, count: 2
compound	subject-of-test	IC50
C[C@@H]1CN(c2cc(=O)n(C)c3ccc(C#N)nc23)[C@@H](C)CN1C(c1ccccc1)c1c(F)cccc1F (single isomer, unassigned) [Example 273, TFA]	human DGKζ (Homo sapiens)	15000 nM
CC(C)[C@@H]1CN(c2c(C#N)c(=O)n(C)c3ccc(C#N)nc23)CCN1C(c1ccc(F)cc1)c1ccc(F)cc1	human DGKζ (Homo sapiens)	77000 nM

So what's the measured IC50 for this one? CC[C@H]1CN(Cc2c(F)cc(F)cc2F)[C@H](C)CN1c1cc(=O)n(C)c2ccc(C#N)nc12
160 nM

Now give it for Cc1c(N2C[C@@H](C)N(C(c3ccc(F)cc3)c3ccc(F)cc3)C[C@@H]2C)c2nc(C#N)ccc2n(C)c1=O too.
37000 nM

Further, for CC[C@H]1CN(C(c2ccc(F)cc2)c2nc(C3CC3)cs2)[C@H](CC)CN1c1cc(=O)n(C)c2ccc(C#N)nc12 (some centres unmarked) [Example 1066] ?
30 nM

And then CC[C@@H]1CN(c2cc(=O)n(C)c3ccc(C#N)nc23)[C@@H](C)CN1C(C)c1ccc(OC)cc1 (single isomer, unassigned) [Example 1350] , what is it?
11 nM

One more compound: CCC(c1ccc(C2CC2)cc1F)N1C[C@H](C)N(c2cc(=O)n(C)c3ccc(C#N)nc23)C[C@H]1C (some centres unmarked) [Example 1219]
69 nM

Now the same for C[C@@H]1CN(c2cc(=O)n(C)c3ccc(C#N)nc23)[C@@H](C)CN1C(c1ccc(F)cc1)c1ccc(N2CCOCC2)cc1 (single isomer, unassigned) [Example 663]
24000 nM

Please do the same for C[C@@H]1CN(c2c(F)c(=O)n(C)c3ccc(C#N)nc23)[C@@H](C)CN1C(c1ccc(F)cc1)c1ccc(C#N)cc1 (some centres unmarked) [Example 328] as well.
2600 nM

Likewise for C[C@H]1CN(C(c2ccc(F)cc2)c2ccc(C(F)(F)F)cn2)[C@H](CO)CN1c1cc(=O)n(C)c2ccc(C#N)nc12 (single isomer, unassigned) [Example 1389] ?
880 nM

// same read-out, input: CC[C@H]1CN(C(C)c2ccc(C(F)(F)F)cc2)[C@H](CC)CN1c1cc(=O)n(C)c2ccc(C#N)nc12 (single isomer, unassigned) [Example 1052]
2000 nM

Please answer likewise for C[C@@H]1CN(c2cc(=O)n(C)c3ccc(C#N)nc23)[C@@H](C)CN1C(c1ccc(F)cc1)C(F)(F)CO (single isomer, unassigned) [Example 1310]
7500 nM

Try the compound CC[C@H]1CN(C(c2ccc(F)cc2)c2ccon2)[C@H](CC)CN1c1cc(=O)n(C)c2ccc(C#N)nc12 (single isomer, unassigned) [Example 1072]
750 nM

Quick one: CC[C@@H]1CN(c2cc(=O)n(C)c3ccc(C#N)nc23)[C@@H](C)CN1C(c1ccc(F)cc1)c1cccc(C(F)(F)F)n1 (some centres unmarked) [Example 1113]
310 nM

Param item: COCC(c1ccc(C(F)(F)F)cn1)N1C[C@H](C)N(c2cc(=O)n(C)c3ccc(C#N)nc23)C[C@H]1C (single isomer, unassigned) [Example 1277]
610 nM

# repeat for CC[C@@H]1CN(c2cc(=O)n(C)c3ccc(C#N)nc23)[C@@H](C)CN1C(C)c1ccc(OC(F)(F)F)cc1F (single isomer, unassigned) [Example 1095]
18 nM

Same read-out for C[C@@H]1CN(c2cc(=O)n(C)c3ccc(C#N)nc23)[C@@H](C)CN1C(c1ccc(C#N)cc1)c1ccc(F)cn1 (single isomer, unassigned) [Example 463] ?
4600 nM

Same again, this time with C[C@@H]1CN(c2cc(=O)n(C)c3ccc(C#N)nc23)[C@@H](C)CN1Cc1ccc(F)cc1
740 nM
